Taken from BindingDB's records for patent US20240270732.

- measured-target: Receptor-interacting serine/threonine-protein kinase 1 (Homo sapiens, UniProt Q13546)
- Sequence (Q13546 whole entry): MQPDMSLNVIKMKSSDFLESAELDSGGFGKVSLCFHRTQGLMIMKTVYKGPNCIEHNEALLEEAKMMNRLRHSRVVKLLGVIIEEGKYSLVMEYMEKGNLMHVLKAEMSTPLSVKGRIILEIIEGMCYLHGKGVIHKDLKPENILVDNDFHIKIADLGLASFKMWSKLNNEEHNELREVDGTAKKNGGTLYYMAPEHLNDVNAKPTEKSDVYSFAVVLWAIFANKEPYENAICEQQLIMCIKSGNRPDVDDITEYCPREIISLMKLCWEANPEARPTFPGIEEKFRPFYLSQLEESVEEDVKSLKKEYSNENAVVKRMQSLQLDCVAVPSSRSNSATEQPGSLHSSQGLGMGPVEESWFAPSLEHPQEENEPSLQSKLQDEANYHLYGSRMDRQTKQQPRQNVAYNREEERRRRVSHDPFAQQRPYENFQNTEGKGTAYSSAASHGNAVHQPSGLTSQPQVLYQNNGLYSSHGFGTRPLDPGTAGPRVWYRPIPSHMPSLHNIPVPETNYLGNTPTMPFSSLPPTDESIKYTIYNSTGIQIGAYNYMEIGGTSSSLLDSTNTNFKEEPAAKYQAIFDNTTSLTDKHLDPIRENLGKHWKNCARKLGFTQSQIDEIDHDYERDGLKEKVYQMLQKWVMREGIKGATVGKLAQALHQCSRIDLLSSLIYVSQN
Lab note - cut at 10 nM for IC50: satisfied if strictly below, not satisfied if not.

INSERT INTO measurements (item_smiles, measured_target, assigned_label) VALUES
  ('C#CCN1CCN(CC#Cc2ccc3c(c2)N(C)C(=O)[C@@H](NC(=O)c2ncc(Cc4ccccc4)o2)[C@@H](C)O3)CC1', 'Receptor-interacting serine/threonine-protein kinase 1 (Homo sapiens, UniProt Q13546)', 'not satisfied'),
  ('C[C@H]1Oc2ccc(C#CCN3CCN(CC#Cc4ccc5c(c4)N(C)C(=O)[C@@H](NC(=O)c4cc(Cc6ccccc6)on4)[C@@H](C)O5)CC3)cc2N(C)C(=O)[C@H]1NC(=O)c1cc(Cc2ccccc2)on1', 'Receptor-interacting serine/threonine-protein kinase 1 (Homo sapiens, UniProt Q13546)', 'not satisfied'),
  ('C#CCN1CCN(CC#Cc2ccc3c(c2)N(C)C(=O)[C@@H](NC(=O)c2ncn(Cc4ccccc4)n2)CO3)CC1', 'Receptor-interacting serine/threonine-protein kinase 1 (Homo sapiens, UniProt Q13546)', 'satisfied'),
  ('C#CCN1CCN(CC#Cc2ccc3c(c2)N(C)C(=O)[C@@H](NC(=O)c2n[nH]c(Cc4ccccc4)n2)[C@H](C)O3)CC1', 'Receptor-interacting serine/threonine-protein kinase 1 (Homo sapiens, UniProt Q13546)', 'not satisfied'),
  ('CN1C(=O)[C@@H](NC(=O)c2ncn(Cc3ccccc3)n2)COc2ccc(C#CCN3CCN(CC#CC#CCN4CCN(CC#Cc5ccc6c(c5)N(C)C(=O)[C@@H](NC(=O)c5ncn(Cc7ccccc7)n5)CO6)CC4)CC3)cc21', 'Receptor-interacting serine/threonine-protein kinase 1 (Homo sapiens, UniProt Q13546)', 'satisfied'),
  ('C[C@H]1Oc2ccc(C#CCN3CCN(CC#Cc4ccc5c(c4)N(C)C(=O)[C@@H](NC(=O)c4ncn(Cc6cccc(N)c6)n4)[C@@H](C)O5)CC3)cc2N(C)C(=O)[C@H]1NC(=O)c1ncn(Cc2cccc(N)c2)n1', 'Receptor-interacting serine/threonine-protein kinase 1 (Homo sapiens, UniProt Q13546)', 'not satisfied'),
  ('C#CCN1CCN(CC#Cc2ccc3c(c2)N(C)C(=O)[C@@H](NC(=O)c2n[nH]c(Cc4cccnc4)n2)[C@@H](C)O3)CC1', 'Receptor-interacting serine/threonine-protein kinase 1 (Homo sapiens, UniProt Q13546)', 'not satisfied'),
  ('C#Cc1ccc2c(c1)N(C)C(=O)[C@@H](NC(=O)c1ncn(Cc3ccccc3)n1)[C@@H](C)O2', 'Receptor-interacting serine/threonine-protein kinase 1 (Homo sapiens, UniProt Q13546)', 'not satisfied'),
  ('C[C@H]1Oc2ccc(C#CCN3CCN(CC#Cc4ccc5c(c4)N(C)C(=O)[C@@H](NC(=O)c4ncn(Cc6ccccc6)n4)[C@@H](C)O5)CC3)cc2N(C)C(=O)[C@H]1NC(=O)c1cn(Cc2ccccc2)cn1', 'Receptor-interacting serine/threonine-protein kinase 1 (Homo sapiens, UniProt Q13546)', 'satisfied'),
  ('C#CCOCCOCCOCCOCCOCC#Cc1ccc2c(c1)N(C)C(=O)[C@@H](NC(=O)c1ncn(Cc3ccccc3)n1)CO2', 'Receptor-interacting serine/threonine-protein kinase 1 (Homo sapiens, UniProt Q13546)', 'satisfied');
